These data points were gathered from ChEMBL document CHEMBL3988442.

tested on: Trypanosoma brucei; assay: Trypanosoma brucei 72 hour study; type: functional, organism-based; set-up: scale not given: in the data most compounds retested in dose-response had high values; settings: 30.3 µM; […]
Among all 66,000 compounds or so, about 960 (1.5%) showed an effect of 50% or more. Only a selection was taken, and strong results are over-represented in it overall.
quantity kind: Percent Effect (%)
Hi! Could you send only the number? It should be in %, unit omitted.

compound: CC(C)NC(=O)N1CC(=O)c2sc(NC3CCCCC3)nc2C1
quantity kind: Percent Effect
numeric readout: -21.05
--
compound: Cl.Clc1ccccc1CN1CCc2nc(C3CCNCC3)ncc2C1
quantity kind: Percent Effect
numeric readout: 9.906

# query: Percent Effect of entry CNc1cccc(CC2COCCN(C(=O)c3cccnc3)C2)n1 (stereo unspecified) 5.622

CC1CCCCN1C(=O)c1coc(COc2cccc3cnccc23)n1 (stereo unspecified) ? 103.3

Same read-out for CN(CC(=O)c1ccc2[nH]c(=O)[nH]c2c1)Cc1ccc2c(c1)OCO2 ? 2.207

Then O=C(c1coc(COc2cccc3cnccc23)n1)N1CCCCCC1 ? -73.19

Try the compound CC[C@H](C)[C@H](N)C(=O)N1CC(=O)c2sc(Nc3ccc(F)cc3)nc2C1 54.3

Next record, please: CCN1CCn2c(C)cnc2C12CCN(C(=O)NCC(C)C)CC2.O=C(O)C(F)(F)F -30.2

---

In this section we review reported Percent Effect values for a set of molecules.
system: Trypanosoma brucei; test: Trypanosoma brucei 72 hour study; assay type: functional, organism-based; set-up: scale not given: in the data most compounds retested in dose-response had high values; conditions: 30.3 µM; […]
Out of some 66,000 compounds screened, about 960 (1.5%) showed an effect of 50% or more. Shown is part of a subset that was picked to be rich in strong results.
Only the number, expressed in %, is required.

Reference set, count: 3
molecule: C[C@@H]1CN(Cc2cccc(F)c2)C[C@]12CCN(Cc1cccnc1)C2=O.O=C(O)C(F)(F)F.O=C(O)C(F)(F)F
quantity kind: Percent Effect
numeric readout: -74.2

molecule: CN1CCCN(c2nccc(-c3c[nH]nc3-c3ccncc3)n2)CC1
quantity kind: Percent Effect
numeric readout: 10.61

molecule: Cc1ccc(CN2CCc3nnc(CN4CCCC4=O)n3CC2)o1.O=C(O)C(F)(F)F
quantity kind: Percent Effect
numeric readout: 11.51

Query (molecule): Cc1ccnc(N2CCC(C(N)=O)CC2)n1 ; field requested: Percent Effect -17.59

# repeat for Cc1nnc(N2CC[C@H]3C[C@@H](C(=O)N4CCCC4)O[C@H]3C2)s1.O=C(O)C(F)(F)F -391.5

Okay, and Cl.O=C1CC2(CCCNC2)C(=O)N1Cc1ccc(Cl)cc1 (configuration not stated) ? 7.931

Moving on to CC(=O)N1CCN(c2cc(CCN)nc(C3CC3)n2)CC1.Cl 1.602

Next molecule up: CC(C)CC(=O)NC[C@H]1CC[C@H](C(c2ccccn2)N(C)C)CC1 (some centres not stated) -15.36

---

tested on: Trypanosoma brucei; assay: Trypanosoma brucei 72 hour study; type: functional, organism-based; set-up: scale not given: in the data most compounds retested in dose-response had high values; details: 30.3 µM; […]
Out of some 66,000 compounds screened, about 960 (1.5%) showed an effect of 50% or more. Only a selection was taken, and strong results are over-represented in it overall.
Quick rule for you: Percent Effect at -20% or higher means 1, lower means 0.

Worked examples follow.
compound: O=C(O)C(F)(F)F.O=C(O)C(F)(F)F.O=C(c1n[nH]c2c1CN(C1CCOC1)CC2)N1CCOCC1 (configuration not stated)
subject of test: Trypanosoma brucei
label class: 1

compound: COc1ccccc1CC1CCCN(CCN2CCOC2=O)C1 (configuration not stated)
subject of test: Trypanosoma brucei
label class: 1

compound: N#Cc1ccc(N2CCCC3(CCN(c4cccnc4)CC3)C2)cc1.O=C(O)C(F)(F)F
subject of test: Trypanosoma brucei
label class: 1

compound: COC[C@@]12CC[C@@H](N3CCOCC3)C[C@H]1CCN(c1ncccc1C)C2
subject of test: Trypanosoma brucei
label class: 1

compound: COc1ccccc1CC1CCCN(CC(=O)NC2CC2)C1 (configuration not stated)
subject of test: Trypanosoma brucei
label class: 1

Hi team, for O=C(O)C(F)(F)F.c1cncc(N2CCC3(CCCN(c4ccncc4)C3)CC2)c1 , is the recorded Percent Effect at or above -20%? 1

Would you mind doing CCCc1nc(CNCC2CCCN2c2cccnn2)cs1 (configuration not stated) as well? 1

---

tested on: Trypanosoma brucei; assay: Trypanosoma brucei 72 hour study; assay type: functional, organism-based; parameters: scale not given: in the data most compounds retested in dose-response had high values; details: 30 µM; 30.03 µM
The whole screen tested about 66,000 compounds, of which about 960 (1.5%) showed an effect of 50% or more. What follows is part of a selection rich in strong results, with near analogues and random picks from the rest.
// reported Percent Effect for each item listed
Answer in %, number only, no unit symbol.

compound: COc1ccnc(NC(=O)c2cscc2C)c1
subject of test: Trypanosoma brucei
quantity kind: Percent Effect
numeric readout: 88.82
//
compound: NC(=O)NCC(=O)N1C[C@H]2CC[C@@H]1CN(Cc1cscn1)C2
subject of test: Trypanosoma brucei
quantity kind: Percent Effect
numeric readout: -50.24
//
compound: CC(C)CN1CCN(C(=O)c2ccncc2F)Cc2cccnc21.O=C(O)C(F)(F)F.O=C(O)C(F)(F)F
subject of test: Trypanosoma brucei
quantity kind: Percent Effect
numeric readout: -15.43
//
compound: COc1ccnc(NC(=O)c2ccsc2)c1
subject of test: Trypanosoma brucei
quantity kind: Percent Effect
numeric readout: 14.39
//
compound: COc1ccnc(NC(=O)c2cscn2)c1
subject of test: Trypanosoma brucei
quantity kind: Percent Effect
numeric readout: 7.926

Fill blank: measured Percent Effect of the compound CN(C)Cc1cn2c(n1)CN(C(=O)Cc1ccsc1)CC2.O=C(O)C(F)(F)F is ____. -42.4

Similarly, CN(Cc1nc(N)c2ccccc2n1)CC1CCCN1c1cccnn1 (stereo unspecified) ? 4.932

CCn1nc(C)c2nnn(CC(=O)Nc3cccc(Cl)c3)c(=O)c21 ? 35.21

Continue with Cc1cc(S(C)(=O)=O)c(C)c(S(=O)(=O)N2CCCC(C)C2)c1 (stereo unspecified) 0.7387

Same read-out for Cc1cc(N2CCc3cncnc3C2)n2nc(C(F)(F)F)nc2n1 ? -22.1

Here is the next compound: OC1(CN2CCC(Oc3cccc(C(F)(F)F)c3)CC2)CNCCOC1 (stereo unspecified) -13.41

---

test system: Trypanosoma brucei; test: Trypanosoma brucei 72 hour study; assay type: functional, organism-based; set-up: scale not given: in the data most compounds retested in dose-response had high values; conditions: 30 µM; 30.03 µM
In all, about 66,000 compounds went through this assay and about 960 (1.5%) showed an effect of 50% or more. This excerpt belongs to a sample that is enriched for strong results.
quantity kind: Percent Effect

compound: Cn1cccc1C(=O)N1CCC2(CCCN2Cc2ccccc2)CC1.O=C(O)C(F)(F)F
Percent Effect: 11.3%

compound: O=C(NCCc1ccccc1)NCCN1CCC(c2cccs2)CC1
Percent Effect: 47.79%

compound: O=C(O)C(c1ccc2c(c1)OCCO2)N1CCC(N2CCSCC2)CC1 (stereo unspecified)
Percent Effect: -29.57%

compound: COc1cc(OC)cc(C2NC(=O)CN2Cc2ccc(Br)cc2)c1 (stereo unspecified)
Percent Effect: -25.05%

compound: CC(=O)NCCN1CCC(c2cccs2)CC1
Percent Effect: -43.56%

compound: COc1cccc(S(=O)(=O)N2C[C@@H](N(C)C)[C@H](C(C)C)C2)c1
Percent Effect: -34.95%

compound: O=C(CCCNC(=O)C1CC1)Nc1cnn(-c2ccccc2Cl)c1
Percent Effect: 60.12%

compound: Cn1cnnc1C1CCN(C(=O)c2cc(-c3ccccc3)on2)CC1
Percent Effect: -50.55%

compound: CN(C)S(=O)(=O)N1C[C@@H](OCc2cccnc2)[C@H]2OCCC[C@H]21.O=C(O)C(F)(F)F
Percent Effect: -11.52%

compound: Cc1cc(C2NC(=O)CN2Cc2ccc(Br)cc2)cc(C)c1O (stereo unspecified)
Percent Effect: 94.42%

Could you now consider this next compound?
Any idea what its Percent Effect is? The compound is COc1ccc(CCC(=O)NCCN2CCC(c3cccs3)CC2)cc1 100%

---

system: Trypanosoma brucei; test: Trypanosoma brucei 72 hour study; assay type: functional, organism-based; set-up: scale not given: in the data most compounds retested in dose-response had high values; conditions: 10 mM as filed; unlikely as a test dose
Out of some 66,000 compounds screened, about 960 (1.5%) showed an effect of 50% or more. What follows is part of a selection rich in strong results, with near analogues and random picks from the rest.
class 1 if Percent Effect is below -30%. class 0 if not; exact matches included in class 0.

Example results:
compound: Cn1c(C2CC2)nc2c1CCN(CCOc1cccc(F)c1)C2
label class: class 1

compound: Cc1ccc(-c2nc(CNCC3CN(C)CCO3)co2)c(C)c1 (stereo not given)
label class: class 0

compound: COc1ccc(-n2ccc(C(=O)NCCN3CCCCCC3)n2)cc1
label class: class 1

compound: CCOc1ncccc1C(=O)N1CCC(Nc2ccc(C)nn2)CC1
label class: class 0

compound: COc1ccc(-n2ccc(C(=O)NCCN3CCC(C)CC3)n2)cc1
label class: class 0

Is the reported Percent Effect for COc1ccc2c(c1)OC1(CCN(Cc3ccc(C)cc3)CC1)CC2=O strictly below -30%? class 1

Please answer likewise for Cc1nc(C)n(CC2CCCN2Cc2ncc(C(C)(C)C)o2)n1 (stereo not given) class 0

Queued: Cc1nc(CN2CCCC2c2noc(C(C)C)n2)oc1C (stereo not given) class 0

Now try COc1ccc(-n2ccc(C(=O)NCCN3CCCCC3)n2)cc1 . class 0

What do you have for CC(C)(C)c1cnc(CN2CCCCC2Cn2cccn2)o1 (stereo not given) ? class 1

Request: O=C1NCCN1C1CCN(Cc2nc(-c3ccccc3)no2)CC1 class 1
